For each entry below, report its self-splicing fitness (ln) value.
# assay_summary: self-splicing fitness, log relative to wild type (ln ratio); higher = more splicing; Tetrahymena group I intron in knt gene, E. coli kanamycin selection, DiMSum; sequences stand for … in CUCUCU…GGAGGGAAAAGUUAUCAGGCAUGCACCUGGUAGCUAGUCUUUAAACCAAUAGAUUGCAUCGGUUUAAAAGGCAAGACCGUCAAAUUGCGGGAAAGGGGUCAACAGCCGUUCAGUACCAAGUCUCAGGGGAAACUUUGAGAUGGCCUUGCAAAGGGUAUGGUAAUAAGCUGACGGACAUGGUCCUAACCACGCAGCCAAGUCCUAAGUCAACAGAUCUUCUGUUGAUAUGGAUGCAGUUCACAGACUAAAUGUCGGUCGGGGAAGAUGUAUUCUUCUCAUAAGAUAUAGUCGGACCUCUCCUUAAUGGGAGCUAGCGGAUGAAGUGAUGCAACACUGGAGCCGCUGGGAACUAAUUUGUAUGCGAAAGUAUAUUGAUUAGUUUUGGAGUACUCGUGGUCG;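 also: selection with 25 µg/mL kanamycin versus none on LB agar overnight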
# measurement_parameters: 30 °C
Give the value as a plain number.

Answer with the recorded self-splicing fitness (ln) of ACGGAGCAAUAUUACGAAAG only.
-3.06

Answer with the recorded self-splicing fitness (ln) of GGAUAGCAAUAUUACGUUUA only.
-1.02

Answer with the recorded self-splicing fitness (ln) of GCUGAGCAAUAUUACGCUCU only.
-1.12

Answer with the recorded self-splicing fitness (ln) of UCACAGCAAUAUUACGCAUC only.
-4.21

Answer with the recorded self-splicing fitness (ln) of GGAUAGCAAUAUUACGGCAC only.
-1.16

Answer with the recorded self-splicing fitness (ln) of GCCAAGCAAUAUUACGGGAG only.
-3.55

Answer with the recorded self-splicing fitness (ln) of GAUGAGCAAUAUUACGCACG only.
-3.63

Answer with the recorded self-splicing fitness (ln) of GUUGAGCAAUAUUACGUUCA only.
-2.3

Answer with the recorded self-splicing fitness (ln) of GCCAAGCAAUAUUACGUACC only.
-1.28

Answer with the recorded self-splicing fitness (ln) of GACCAGCAAUAUUACGGGGC only.
-2.78

Answer with the recorded self-splicing fitness (ln) of UGGCAGCAAUAUUACGUCUU only.
-0.0989

Answer with the recorded self-splicing fitness (ln) of UGACAGCAAUAUUACGCUAG only.
-1.37

Answer with the recorded self-splicing fitness (ln) of GUGAAGCAAUAUUACGUCGG only.
-0.498

Answer with the recorded self-splicing fitness (ln) of AGAGAGCAAUAUUACGACCU only.
-1.59

Answer with the recorded self-splicing fitness (ln) of AUUCAGCAAUAUUACGGCGC only.
-0.389

Answer with the recorded self-splicing fitness (ln) of CGGGAGCAAUAUUACGGGAU only.
-3.37

Answer with the recorded self-splicing fitness (ln) of ACCUAGCAAUAUUACGAGCU only.
-0.918

Answer with the recorded self-splicing fitness (ln) of UAGAAGCAAUAUUACGCCAA only.
-1.44

Answer with the recorded self-splicing fitness (ln) of UGCAAGCAAUAUUACGCCCU only.
-0.189

Answer with the recorded self-splicing fitness (ln) of ACUCAGCAAUAUUACGACGA only.
-0.9

Answer with the recorded self-splicing fitness (ln) of ACAGAGCAAUAUUACGGUAG only.
-2.61

Answer with the recorded self-splicing fitness (ln) of UCCGAGCAAUAUUACGGGGC only.
-4.28

Answer with the recorded self-splicing fitness (ln) of GACCAGCAAUAUUACGGAAC only.
-0.88

Answer with the recorded self-splicing fitness (ln) of UCAUAGCAAUAUUACGAAUU only.
-3.73

Answer with the recorded self-splicing fitness (ln) of GGCAAGCAAUAUUACGCGGG only.
-3.73

Answer with the recorded self-splicing fitness (ln) of AGCUAGCAAUAUUACGCGCA only.
-0.216

Answer with the recorded self-splicing fitness (ln) of GAUGAGCAAUAUUACGACGC only.
-0.267

Answer with the recorded self-splicing fitness (ln) of ACGAAGCAAUAUUACGCGAA only.
-2.07

Answer with the recorded self-splicing fitness (ln) of GUUUAGCAAUAUUACGACUU only.
-0.551

Answer with the recorded self-splicing fitness (ln) of CCCGAGCAAUAUUACGAUUA only.
-3.04

Answer with the recorded self-splicing fitness (ln) of AAGCAGCAAUAUUACGUUAU only.
-2.38

Answer with the recorded self-splicing fitness (ln) of GCCUAGCAAUAUUACGAUGA only.
-2.48

Answer with the recorded self-splicing fitness (ln) of CACGAGCAAUAUUACGAUUU only.
-3.18

Answer with the recorded self-splicing fitness (ln) of GACAAGCAAUAUUACGUUGU only.
-3.54

Answer with the recorded self-splicing fitness (ln) of UGGUAGCAAUAUUACGUUAG only.
-1.9

Answer with the recorded self-splicing fitness (ln) of CAUGAGCAAUAUUACGUAUC only.
-3.9

Answer with the recorded self-splicing fitness (ln) of CUUGAGCAAUAUUACGGUAU only.
-3.17

Answer with the recorded self-splicing fitness (ln) of GCAGAGCAAUAUUACGAUGU only.
-4.4

Answer with the recorded self-splicing fitness (ln) of GAUCAGCAAUAUUACGGUAC only.
-0.39

Answer with the recorded self-splicing fitness (ln) of CCCGAGCAAUAUUACGUGCC only.
-4.31

Answer with the recorded self-splicing fitness (ln) of GCCAAGCAAUAUUACGCCUU only.
-2.83

Answer with the recorded self-splicing fitness (ln) of AGCCAGCAAUAUUACGUCUG only.
-4.62

Answer with the recorded self-splicing fitness (ln) of UACUAGCAAUAUUACGGAUG only.
-0.926

Answer with the recorded self-splicing fitness (ln) of AAUUAGCAAUAUUACGUUUG only.
-3.16

Answer with the recorded self-splicing fitness (ln) of AGGCAGCAAUAUUACGUAUC only.
-2.26

Answer with the recorded self-splicing fitness (ln) of AGCAAGCAAUAUUACGACAC only.
-1.21

Answer with the recorded self-splicing fitness (ln) of CAGAAGCAAUAUUACGACCU only.
-2.86

Answer with the recorded self-splicing fitness (ln) of AACAAGCAAUAUUACGUGCA only.
-0.969

Answer with the recorded self-splicing fitness (ln) of GUAGAGCAAUAUUACGCGCA only.
-0.299

Answer with the recorded self-splicing fitness (ln) of ACAGAGCAAUAUUACGAGGA only.
-3.04

Answer with the recorded self-splicing fitness (ln) of CGCAAGCAAUAUUACGCUUG only.
-2.74

Answer with the recorded self-splicing fitness (ln) of UAACAGCAAUAUUACGUACU only.
-1.07

Answer with the recorded self-splicing fitness (ln) of CCUAAGCAAUAUUACGCGAU only.
-3.49

Answer with the recorded self-splicing fitness (ln) of AUGCAGCAAUAUUACGCUCC only.
-2.02

Values from the supplement of paper PMC7877785
